Recorded hepatic extraction ratio, one value per entry.
- Protocol Details: Clearance in Wistar Han rat hepatocytes relative to hepatic blood flow
- Format: ADME, cell-based, Hepatocyte
- Measurement Parameters: read-out: CLH
The answer should be a number; do not append a unit.

The examples below pair each entry with its known result.
INSERT INTO measurements (smiles_string, recorded_value) VALUES
  ('CC1(C)CC(=O)c2c(noc2Cc2ccc(C(=O)N3CC[C@@H](O)C3)cc2)C1', 0.52),
  ('CN(CCO)C(=O)c1ccc(Cc2onc3c2C(=O)CC(C)(C)C3)cc1', 0.52);

# input for lookup
Supply reported hepatic extraction ratio belonging to this molecule: `CC1(C)CC(=O)c2c(noc2Cc2ccc(C(N)=O)cc2)C1`
0.6

Attribution: ChEMBL document CHEMBL4184185
